# Tested on: biotinyl-Leu-oxazolone
# measurement-protocol: self-aminoacylation, catalytic enhancement (BLO) (fold over background); higher = more active; k-Seq, kA / k0A0; sequences stand for … in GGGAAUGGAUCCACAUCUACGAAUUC…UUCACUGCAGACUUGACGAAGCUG
Variants at the floor of the assay were thinned out.
Label rule, in plain words: self-aminoacylation of 3 and up is 1, under 3 is -1.

Illustrative cases are given below, each with its answer.
INSERT INTO results (sequence_content, assay_system, label_class) VALUES
  ('CCACAAUUCAAGCAAUCGAUC [Fam1B.1 aminoacylation ribozyme variant]', 'biotinyl-Leu-oxazolone', -1),
  ('AUUCACCUAGGUCAGCGAGUG [Fam2.2 aminoacylation ribozyme variant]', 'biotinyl-Leu-oxazolone', 1);

Next:
Enquiry: Does self-aminoacylation meet or surpass 3 for AUUAACCUAGGUCAACGGGUG [Fam2.2 aminoacylation ribozyme variant] ?
Return: 1
